Form field: GI50 (one value per entry).
system: HCC 2998; assay: NCI tumour cell line growth inhibition, 48 h
Activity calls are given as the source filed them. Cut-off read from the data, not from the text of the source: active = GI50 up to about 1.1 µM and inactive = higher.

Query GI50 for CCN(CC)C(=S)SC(=S)N(CC)CC 1.93 µM (inactive)

Query GI50 for CCCCCc1c(CCCC)c(O)nc2nc(NC(=O)CCCC)ccc12 > 100 µM (inactive)

Query GI50 for CCN(CC)CCC1CC/C(=C\c2ccc(OC)cc2)C1=O (stereo not drawn) > 100 µM (inactive)

---

tested on: RXF 393; experiment: NCI tumour cell line growth inhibition, 48 h
Activity calls are given as the source filed them. Cut-off read from the data, not from the text of the source: active = GI50 up to about 1.1 µM and inactive = higher.
property: GI50

Consider the reported GI50 for these molecules:
>>> experimental_result("O=C1C=C(C2=CC(=O)C(=O)c3ccccc32)c2ccccc2C1=O")
"10.9 µM (inactive)"
>>> experimental_result("O=C1OC(c2ccccc2)(c2ccccc2)c2ccc3ccc(F)cc3c21")
"> 100 µM (inactive)"

Query GI50 for N[C@H]1CCCC[C@@H]1N1C(=O)c2ccccc2C1(O)c1ccc(Cl)cc1 (stereo partly specified) 6.07 µM (inactive)

Query GI50 for Cc1cn([C@H]2C[C@](C)(CO)N(C)O2)c(=O)[nH]c1=O > 100 µM (inactive)

Query GI50 for Nc1[nH]c(Nc2ccc(Cl)c(Cl)c2)nc2ncnc1-2 4.78 µM (inactive)

Query GI50 for C=CCCC(CCC=C)(C(=O)O)C(=O)O > 100 µM (inactive)

---

system: LOX IMVI; assay: NCI tumour cell line growth inhibition, 48 h
Active and inactive are the calls of the source. Cut-off read from the data, not from the text of the source: active = GI50 up to about 1.1 µM and inactive = higher.
property: GI50

>>> experimental_result("C=CCC1(OCc2ccccc2)C(=O)C(=O)OC1C1COC(C)(C)O1 (stereo not drawn)")
"> 100 µM (inactive)"
>>> experimental_result("Cc1ccc(NC(=O)CC/C(CC(=O)C(C)(C)C)=N/Nc2nnc(C)n2N)cc1C")
"> 100 µM (inactive)"
>>> experimental_result("Cc1cc(NS(=O)(=O)c2ccc(NC(=O)c3cccc4c(Nc5ccc(S(=O)(=O)Nc6cc(C)on6)cc5)c5ccc(Cl)cc5nc34)cc2)no1")
"53.7 µM (inactive)"

Lab note: LOX IMVI assay, enter GI50 for COc1ccc(C2c3cc4c(cc3OC(N3CCOCC3)C2C)OCO4)cc1 (stereo not drawn) here 24.1 µM (inactive)

Lab note: LOX IMVI assay, enter GI50 for CN(C)CCCCN1c2ccccc2Sc2ccc(C(=O)c3ccccc3)cc21 here 1.8 µM (inactive)

Lab note: LOX IMVI assay, enter GI50 for Nc1ccn(C2OC(CO)C(O)C2O)c(=O)n1 (stereo not drawn) here 0.219 µM (active)

Lab note: LOX IMVI assay, enter GI50 for CN(C)CCCN1c2ccccc2Sc2cnccc21 here 65.2 µM (inactive)

Lab note: LOX IMVI assay, enter GI50 for CCOP(=O)(OCC)C(Cc1ccc(Cl)cc1)NS(=O)(=O)c1ccc(C)cc1 (stereo not drawn) here > 100 µM (inactive)

---

system: UACC-62; test: NCI tumour cell line growth inhibition, 48 h
The source made the active and inactive calls. Rule as the data show it: active = GI50 up to about 1.1 µM and inactive = higher.
property: GI50

Consider the reported GI50 for these molecules:
>>> experimental_result("CC(C)(C)OC(=O)NCC(=O)NC1CC=CCC1NC(=O)CNC(=O)OC(C)(C)C (configuration not stated)")
"> 100 µM (inactive)"
>>> experimental_result("COc1cc(OC)c(NC2=NCCO2)cc1Cl")
"60.7 µM (inactive)"
>>> experimental_result("c1ccc(C(NC2CCCCC2NCCNC2CCCCC2NC(c2ccccc2)(c2ccccc2)c2ccccc2)(c2ccccc2)c2ccccc2)cc1 (configuration not stated)")
"26.2 µM (inactive)"
>>> experimental_result("CC1(C)O[C@@H]2[C@@H](COC(C)(C)O[C@H]2C2SCCCS2)O1")
"> 100 µM (inactive)"
>>> experimental_result("N#C/C(=C\\c1ccc(CP(=O)(O)O)cc1)C(N)=O")
"> 100 µM (inactive)"

Query GI50 for O=C(CC(C(=O)O)N1CCOCC1)c1ccccc1 (configuration not stated) 14.6 µM (inactive)

Query GI50 for COc1cc(NS(C)(=O)=O)ccc1NCc1c[nH]c2ccc3nc(C)ccc3c12 40.6 µM (inactive)

---

system: ACHN; experiment: NCI tumour cell line growth inhibition, 48 h
Active and inactive are the calls of the source. Cut-off read from the data, not from the text of the source: active = GI50 up to about 1.1 µM and inactive = higher.
Form field: GI50 (one value per entry).

>>> experimental_result("O=S1(=O)C(c2ccccc2)=C(O)c2ccccc21")
"> 100 µM (inactive)"
>>> experimental_result("COc1cc(O)c2c(=O)c3cccc(C)c3[nH]c2c1")
"7.41 µM (inactive)"
>>> experimental_result("Cc1ccc(/C=C2\\N=C(N3CCOCC3)NC2=O)cc1")
"> 100 µM (inactive)"
>>> experimental_result("O=C(NNS(=O)(=O)c1ccc(Br)cc1)c1ccc(Cl)cc1NC(=O)C12CC3CC(CC(C3)C1)C2")
"16 µM (inactive)"
>>> experimental_result("O=C1OC(c2ccccc2)(c2ccccc2)c2ccc3ccc(F)cc3c21")
"49.8 µM (inactive)"
>>> experimental_result("CCOC(=O)c1sc2ncnc(N)c2c1C")
"65.8 µM (inactive)"
>>> experimental_result("Cc1cc(N(CCC#N)CCC#N)ccc1/C=C1/N=C(c2ccccc2)N(N)C1=O")
"> 100 µM (inactive)"
>>> experimental_result("O=C(NCCCN1CCN(CCCNC(=O)Nc2cc(Cl)ccc2Cl)CC1)Nc1cc(Cl)ccc1Cl")
"> 100 µM (inactive)"
>>> experimental_result("C=C1C(=O)O[C@H]2C3C(=C(C)CC[C@@H]12)C(=O)[C@@H]1OC31C (some centres undefined)")
"2.6 µM (inactive)"
>>> experimental_result("CC1CCN(CC(=O)N2c3ccccc3Sc3cc4ccccc4cc32)CC1")
"> 100 µM (inactive)"

Query GI50 for COC1C(O)C(O[C@H]2CC[C@@]3(C)C(CC[C@@H]4[C@@H]3CC[C@]3(C)[C@@H](C(C)OC5OC(CO)C(O)C(O)C5O)CC[C@]43O)C2)OC(C)C1OC1OC(CO)C(O)C(O)C1O (some centres undefined) > 100 µM (inactive)

Query GI50 for CC(C)(C)c1cc(C(C)(C)C)c(P=C(Cl)Cl)c(C(C)(C)C)c1 (centres undefined) > 100 µM (inactive)

Query GI50 for O=C1CCCCCCCCCCC1CN1CCOCC1 (centres undefined) > 100 µM (inactive)

Query GI50 for CC(=O)c1cc([N+](=O)[O-])ccc1OCC(=O)O > 100 µM (inactive)

Query GI50 for N#CC(c1ccccc1)(c1ccccc1)[C@@H](c1ccccc1)[C@H](Cc1ccccc1)NS(=O)(=O)c1ccccc1 > 100 µM (inactive)

---

Form field: GI50 (one value per entry).
test system: 786-0; experiment: NCI tumour cell line growth inhibition, 48 h
Active and inactive are the calls of the source. Cut-off read from the data, not from the text of the source: active = GI50 up to about 1.1 µM and inactive = higher.

Consider the reported GI50 for these compounds:
>>> experimental_result("CC(=O)c1ccccc1NS(=O)(=O)c1ccc2nc(C)n(NS(=O)(=O)c3ccccc3C(C)=O)c(=O)c2c1")
"> 100 µM (inactive)"
>>> experimental_result("CN(C)CCCN1c2ccccc2Sc2cnccc21")
"77.1 µM (inactive)"
>>> experimental_result("O=C1c2ccccc2C(=O)N1CCCOCc1cnc(O)nc1O")
"> 100 µM (inactive)"

Query GI50 for N#Cc1c(Cl)nc2ccccc2c1N=[N+]=[N-] 2.8 µM (inactive)

---

tested on: Hs-578T; assay: NCI tumour cell line growth inhibition, 48 h
Calls of active or inactive are those of the source. No stated cut-off is given here; in the data, active = GI50 up to about 1.1 µM and inactive = higher.
property: GI50

Consider the reported GI50 for these compounds:
>>> experimental_result("C=C1CC(Cn2cc(C)c(=O)[nH]c2=O)(c2ccc(Cl)cc2)OC1=O (stereo unspecified)")
"6.58 µM (inactive)"
>>> experimental_result("CSc1ccc(/C=C2\\N=C(c3ccccc3)N(/N=C3\\C(=O)Nc4ccccc43)C2=O)cc1")
"> 100 µM (inactive)"
>>> experimental_result("O=C1Cc2c([nH]c3c(Cl)cccc23)-c2ccccc2N1")
"87.3 µM (inactive)"
>>> experimental_result("c1ccc2c(c1)[C@@H]1O[C@@H]1[C@@]13O[C@@]21[C@H]1O[C@H]1c1ccccc13")
"13 µM (inactive)"
>>> experimental_result("O=C(NNS(=O)(=O)c1ccc(Br)cc1)c1ccc(Cl)cc1NC(=O)C12CC3CC(CC(C3)C1)C2")
"17.4 µM (inactive)"

Lab note: Hs-578T assay, enter GI50 for C[C@H]1C(=O)C2=C[C@H]1CCC(=O)[C@]1(C)CCCC(C)(C)[C@H]1C[C@H]2O here 19 µM (inactive)

Lab note: Hs-578T assay, enter GI50 for c1cc(C[S+]2CCCC2)sc1C[S+]1CCCC1 here > 100 µM (inactive)

Lab note: Hs-578T assay, enter GI50 for O=C(Cn1ccnc1[N+](=O)[O-])NCCO [ETANIDAZOLE] here > 100 µM (inactive)

Lab note: Hs-578T assay, enter GI50 for O=C1NNC(=O)c2ccccc2SSc2ccccc2C(=O)NNC(=O)c2ccccc2SSc2ccccc21 here > 50 µM (inactive)

Lab note: Hs-578T assay, enter GI50 for c1ccc(C(NC2CCCCC2NCCNC2CCCCC2NC(c2ccccc2)(c2ccccc2)c2ccccc2)(c2ccccc2)c2ccccc2)cc1 (stereo unspecified) here 11.7 µM (inactive)

Lab note: Hs-578T assay, enter GI50 for CCOP(=O)(OCC)C(NC(=O)OCC(Cl)(Cl)Cl)n1nnc(C(=O)OC)c1C(=O)OC (stereo unspecified) here > 100 µM (inactive)

Lab note: Hs-578T assay, enter GI50 for Cc1cc(/N=C/c2ccc(C#N)cc2)n(-c2ccccc2)n1 here 44.2 µM (inactive)

Lab note: Hs-578T assay, enter GI50 for Cc1ccc2c(ccc3[nH]cc(CNc4ccc(NS(C)(=O)=O)cc4)c32)n1 here 27.4 µM (inactive)

Lab note: Hs-578T assay, enter GI50 for C=CCCC(CCC=C)(C(=O)O)C(=O)O here > 100 µM (inactive)

Lab note: Hs-578T assay, enter GI50 for O=C1C(=O)C(CCCO)(CCCO)CCCCCCCCC1(CCCO)CCCO here 57.7 µM (inactive)

Lab note: Hs-578T assay, enter GI50 for N#C[BH2-][n+]1ccc(C(=O)NNCc2cccc(C(F)(F)F)c2)cc1 here 4.59 µM (inactive)

Lab note: Hs-578T assay, enter GI50 for CC1(C)OC[C@@H]([C@@]2(COC(c3ccccc3)(c3ccccc3)c3ccccc3)CC=CC(=O)O2)O1 here 46.9 µM (inactive)

Lab note: Hs-578T assay, enter GI50 for CCN(C(=O)/C=C/c1ccco1)c1ccccc1 here > 100 µM (inactive)

Lab note: Hs-578T assay, enter GI50 for Nc1ccccc1C#CC(=O)c1cccc(C(F)(F)F)c1 here 2.56 µM (inactive)

Lab note: Hs-578T assay, enter GI50 for O=C(NCCCCNCCCNC(=O)c1ccccc1)c1ccccc1 here > 100 µM (inactive)

Lab note: Hs-578T assay, enter GI50 for O=C(Oc1ccc(OC(Oc2ccccc2)c2ccccc2)cc1)c1ccccc1 (stereo unspecified) here > 31.6 µM (inactive)
